Biological target: MMP-13 (Homo sapiens, UniProt P45452)
Construct: made in house; host or cells: baculovirus / insect cells
Assay: biochemical
Conditions: recombinant human MMP-13, MCA peptide substrate 4 μM, pH 7.5, room temperature; read-out: MMP-13 IC50
Counter-ions that a name gives are not always drawn.
Rule: IC50 below 20 nM gives True, anything at or above gives False.

• CN(C)c1cccc2c(S(=O)(=O)N3CC(Oc4ccc(S(=O)(=O)C5(C(=O)NO)CCOCC5)cc4)C3)cccc12 [Example 852] = False
• COCCN1CCC(C(=O)NO)(S(=O)(=O)c2ccc(N3CCC(C(=O)N(C)c4ccccc4)CC3)cc2)CC1 [Example 244, Monohydrate] = False
• O=C(c1ccc2c(c1)OCO2)C1CCN(c2ccc(S(=O)(=O)C3(C(=O)NO)CCOCC3)cc2)CC1 [Example 796] = True
• O=C(CCCCNCc1ccncc1)N1CCC(C(=O)NO)(S(=O)(=O)c2ccc(Oc3ccc(C(F)(F)F)cc3)cc2)CC1 [Example 340] = True
• COc1cccc(S(=O)(=O)N2CC(Oc3ccc(S(=O)(=O)C4(C(=O)NO)CCOCC4)cc3)C2)c1 [Example 829] = True
• CCOC(=O)CN1CCN(CC(=O)N2CCC(C(=O)NO)(S(=O)(=O)c3ccc(N4CCC(C(=O)N5CC(C)CC(C)C5)CC4)cc3)CC2)CC1 (stereo not shown) [Example 305] = False
• COC[C@@H]1CCN(c2ccc(S(=O)(=O)C3(C(=O)NO)CCOCC3)cc2)C1 [Example 529] = False
• O=C(Nc1cccc(C(F)(F)F)c1)OC1CCN(c2ccc(S(=O)(=O)C3(C(=O)NO)CCOCC3)cc2)CC1 [Example 188] = True
• O=C(NO)C1(S(=O)(=O)c2ccc(N3CC[C@@H](COCc4ccc(F)cc4)C3)cc2)CCOCC1 [Example 526] = False
• CS(=O)(=O)N1CCCN(C2CCN(c3ccc(S(=O)(=O)C4(C(=O)NO)CCOCC4)cc3)CC2)CC1 [Example 815] = False
• COc1ccc(C(=O)C2CCN(c3ccc(S(=O)(=O)C4(C(=O)NO)CCOCC4)cc3)CC2)cc1 [Example 80] = True
• CC1CCN(c2ccc(S(=O)(=O)C3(C(=O)NO)CCOCC3)cc2)CC1 [Example 495] = True
• O=C(NO)C1(S(=O)(=O)c2ccc(N3CCN(S(=O)(=O)c4cccs4)CC3)cc2)CCOCC1 [Example 685] = True
• O=C(NO)C1(S(=O)(=O)c2ccc(Oc3ccncc3)cc2)CCS(=O)(=O)CC1 [Example 160] = False
• O=C(NO)C1(S(=O)(=O)c2ccc(N3CCC(Oc4cccc5ccccc45)CC3)cc2)CCOCC1 [Example 614] = False
• CCOCC1CCCN(c2ccc(S(=O)(=O)C3(C(=O)NO)CCOCC3)cc2)C1 (stereo not shown) [Example 563] = False
• COCCN1CCC(C(=O)NO)(S(=O)(=O)c2ccc(N3CCC(C(=O)NC4Cc5ccccc5C4)CC3)cc2)CC1 [Example 242, Monohydrochloride] = False
• O=C(NO)C1(S(=O)(=O)c2ccc(N3CCC(C(O)c4ccccc4)CC3)cc2)CCOCC1 (stereo not shown) [Example 827] = True
• CC1CC(C)CN(C(=O)C2CCN(c3ccc(S(=O)(=O)C4(C(=O)NO)CCN(C(=O)CNCCN(C)C)CC4)cc3)CC2)C1 (stereo not shown) [Example 289] = False
• COc1ccc(OC2CCN(c3ccc(S(=O)(=O)C4(C(=O)NO)CCOCC4)cc3)CC2)cc1OC [Example 616] = True
• O=C(Nc1cccc(F)c1)C1CCN(c2ccc(S(=O)(=O)C3(C(=O)NO)CCOCC3)cc2)CC1 [Example 71] = True
• CCOc1cccc(OC2CCN(c3ccc(S(=O)(=O)C4(C(=O)NO)CCOCC4)cc3)CC2)c1 [Example 640] = True
• O=C(NO)C1(S(=O)(=O)c2ccc(N3CCCC(COCc4ccc(Cl)c(Cl)c4)C3)cc2)CCOCC1 (stereo not shown) [Example 508] = True
• COCCN1CCC(C(=O)NO)(S(=O)(=O)c2ccc(N3CCC(C(=O)NCCCc4ccccc4)CC3)cc2)CC1 [Example 237, Monohydrochloride] = True
• COc1ccc(S(=O)(=O)N2CCCN(c3ccc(S(=O)(=O)C4(C(=O)NO)CCOCC4)cc3)CC2)cc1 [Example 698] = True
• O=C(NO)C1(S(=O)(=O)c2ccc([C@H]3CC[C@@H](c4ccccc4)CC3)cc2)CCOCC1 [Example 781] = False
• CC1CC(C)CN(C(=O)C2CCN(c3ccc(S(=O)(=O)C4(C(=O)NO)CCN(C(=O)CN5CCC(C(N)=O)CC5)CC4)cc3)CC2)C1 (stereo not shown) [Example 300] = False
• CC1CC(C)CN(C(=O)C2CCN(c3ccc(S(=O)(=O)C4(C(=O)NO)CCN(C(=O)CNCC5CC5)CC4)cc3)CC2)C1 (stereo not shown) [Example 293] = False
